- STUDY_TARGET: full-length beta-catenin (Axin site) (Homo sapiens, UniProt P35222)
- Construct: 15 nM full-length beta-catenin, 20 nM FITC labeled peptide in buffer
- Sequence (P35222 whole entry): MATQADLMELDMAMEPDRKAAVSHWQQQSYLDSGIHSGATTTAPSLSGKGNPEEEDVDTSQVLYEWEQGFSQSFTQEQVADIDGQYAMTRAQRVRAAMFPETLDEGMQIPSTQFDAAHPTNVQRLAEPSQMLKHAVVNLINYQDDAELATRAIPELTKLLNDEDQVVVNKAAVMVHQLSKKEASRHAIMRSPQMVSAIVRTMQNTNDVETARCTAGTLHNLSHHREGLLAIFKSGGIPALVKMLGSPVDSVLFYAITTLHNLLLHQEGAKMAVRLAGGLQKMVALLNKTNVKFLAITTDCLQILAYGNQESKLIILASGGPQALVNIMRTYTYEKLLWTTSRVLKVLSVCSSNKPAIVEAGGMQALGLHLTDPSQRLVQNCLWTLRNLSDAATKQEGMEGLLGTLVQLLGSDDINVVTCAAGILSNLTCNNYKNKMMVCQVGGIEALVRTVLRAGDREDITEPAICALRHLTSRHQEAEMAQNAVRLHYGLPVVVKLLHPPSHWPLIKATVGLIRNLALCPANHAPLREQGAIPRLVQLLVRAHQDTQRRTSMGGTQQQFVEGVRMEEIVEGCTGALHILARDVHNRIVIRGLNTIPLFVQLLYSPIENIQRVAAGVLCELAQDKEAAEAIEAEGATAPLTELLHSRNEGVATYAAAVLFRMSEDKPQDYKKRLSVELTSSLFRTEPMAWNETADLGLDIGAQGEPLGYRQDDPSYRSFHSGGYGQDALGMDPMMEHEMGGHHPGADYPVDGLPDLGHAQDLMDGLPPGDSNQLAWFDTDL
- TEST_PROTOCOL: Competition fluorescence polarization assay (Axin site probe)
- Format: binding
- TEST_CONTEXT: competition fluorescence polarization, Table 2; read-out: in vitro FP EC50
Some compounds, each annotated with its measured EC50.

Ask | Give the measured EC50 of CC[C@H](C)[C@@H]1NC(=O)[C@H](Cc2c[nH]cn2)NC(=O)[C@H](C)NC(=O)[C@H](CC(=O)O)NC(=O)[C@H](CC(C)C)NC(=O)[C@H]([C@@H](C)CC)NC(=O)[C@](C)(NC(=O)[C@H](C)NC(C)=O)CCCCC=CCOC(=O)N(C)CC[C@@](C)(C(=O)N[C@@H](CCCNC(=N)N)C(=O)N[C@H](C(=O)N[C@@H](Cc2c[nH]c3ccccc23)C(N)=O)C(C)C)NC1=O (single isomer, unassigned) [FP0502c Isomer 2, Ac-A-R6-I-L-D-A-H-I-MF-R-V-W-NH2] .
Reply | 100 to 500 nM

Please look at the following compound next.
Ask | Field request: EC50 | item: CC[C@H](C)[C@@H]1NC(=O)[C@H](Cc2c[nH]cn2)NC(=O)[C@H](C)NC(=O)[C@H](CC(=O)O)NC(=O)[C@H](CC(C)C)NC(=O)[C@H]([C@@H](C)CC)NC(=O)[C@](C)(NC(=O)[C@H](C)NC(C)=O)CCC=CCOC(=O)N(C)CCC[C@@](C)(C(=O)N[C@@H](CCCNC(=N)N)C(=O)N[C@H](C(=O)N[C@@H](Cc2c[nH]c3ccccc23)C(N)=O)C(C)C)NC1=O [FP0509c, Ac-A-R4-I-L-D-A-H-I-MH-R-V-W-NH2]
Reply | < 100 nM

====

- TEST_PROTOCOL: Solubility in DPBS (A280 of supernatant)
- Type: physicochemical
- TEST_CONTEXT: DPBS, Table 2; read-out: Solubility
- Description: Suitable assays for assessing solubility are widely known in the art and can be utilized in accordance with the present disclosure. In some embodiments, in an exemplary protocol, dried peptide was reconstituted in DPBS (DPBS, 1×, cell culture grade, Sigma D8537) in triplicate, vortexed, sonicated and then centrifuged. Absorbance of the supernatant was measured at A280 (Nanodrop 2000) and the concentration was determined using the extinction coefficient for tryptophan. […]
Numbered stars: 1 amine (or outer) side, 2 acyl side, 3 side chain; on linkers, the order of the positions; unused ones are H or OH. Bridge positions count the residues as written; N and C are the ends. Square brackets hold non-standard residues; d marks the D form. Peptide text beside a SMILES is read from it. dαMeOrn(Me) = CN(CCC[C@@](C)(N[*:1])C(=O)[*:2])[*:3]; dαMeDab(Me) = CN(CC[C@@](C)(N[*:1])C(=O)[*:2])[*:3]; αMeDab(Me) = CN(CC[C@](C)(N[*:1])C(=O)[*:2])[*:3]; X1 = O=C([C@]1(N[*:1])CCN([*:3])C1)[*:2]; X2 = O=C(OCC=CCOC(=O)[*:2])[*:1]
RESULT_TYPE: solubility (µM)
Write the number in µM without appending the unit.

Ask | Name the recorded solubility for CC[C@H](C)[C@@H]1NC(=O)[C@H](Cc2c[nH]cn2)NC(=O)[C@H](C)NC(=O)[C@H](CC(=O)O)NC(=O)[C@H](CC(C)C)NC(=O)[C@H]([C@@H](C)CC)NC(=O)[C@@](C)(NC(=O)[C@H](C)NC(C)=O)CCN(C)C(=O)OCC=CCOC(=O)N2CC[C@@](C(=O)N[C@@H](CCCNC(=N)N)C(=O)N[C@H](C(=O)N[C@@H](Cc3c[nH]c4ccccc34)C(N)=O)C(C)C)(C2)NC1=O [FP0626c, Ac-A-MF-I-L-D-A-H-I-MB-R-V-W-NH2] (Ac-A[αMeDab(Me)]ILDAHI[X1]RVW-NH2; linker 2-9 via X2) .
Reply | 40

Ask | For CC[C@H](C)[C@@H]1NC(=O)[C@H](Cc2c[nH]cn2)NC(=O)[C@H](C)NC(=O)[C@H](CC(=O)O)NC(=O)[C@H](CC(C)C)NC(=O)[C@H]([C@@H](C)CC)NC(=O)[C@](C)(NC(=O)[C@H](C)NC(C)=O)CCCN(C)C(=O)OCC=CCOC(=O)N(C)CC[C@](C)(C(=O)N[C@@H](CCCNC(=N)N)C(=O)N[C@H](C(=O)N[C@@H](Cc2c[nH]c3ccccc23)C(N)=O)C(C)C)NC1=O [FP0588c, Ac-A-MI-I-L-D-A-H-I-MG-R-V-W-NH2] (Ac-A[dαMeOrn(Me)]ILDAHI[dαMeDab(Me)]RVW-NH2; linker 2-9 via X2) , what is its reported solubility?
Reply | 133

In the following, a different compound is considered.
Ask | Endpoint output: solubility of CC[C@H](C)[C@@H]1NC(=O)[C@H](Cc2c[nH]cn2)NC(=O)[C@H](C)NC(=O)[C@H](CC(=O)O)NC(=O)[C@H](CC(C)C)NC(=O)[C@H]([C@@H](C)CC)NC(=O)[C@](C)(NC(=O)[C@H](C)NC(=O)CCN)CCCCCCC=CCOC(=O)N2CC[C@@](C(=O)N[C@@H](CCCNC(=N)N)C(=O)N[C@H](C(=O)N[C@@H](Cc3c[nH]c4ccccc34)C(N)=O)C(C)C)(C2)NC1=O [FP0217c_bAfree, bA-A-R8-I-L-D-A-H-I-MB-R-V-W-NH2] . Value?
Reply | 155
